# Study Target: T1, integrin αVβ5 (UniProt P06756 31-992; P18084 24-719)
# T1 construct: Coated on the ELISA plate
# T1 sequence (P06756 31-992, chain 1 of 2): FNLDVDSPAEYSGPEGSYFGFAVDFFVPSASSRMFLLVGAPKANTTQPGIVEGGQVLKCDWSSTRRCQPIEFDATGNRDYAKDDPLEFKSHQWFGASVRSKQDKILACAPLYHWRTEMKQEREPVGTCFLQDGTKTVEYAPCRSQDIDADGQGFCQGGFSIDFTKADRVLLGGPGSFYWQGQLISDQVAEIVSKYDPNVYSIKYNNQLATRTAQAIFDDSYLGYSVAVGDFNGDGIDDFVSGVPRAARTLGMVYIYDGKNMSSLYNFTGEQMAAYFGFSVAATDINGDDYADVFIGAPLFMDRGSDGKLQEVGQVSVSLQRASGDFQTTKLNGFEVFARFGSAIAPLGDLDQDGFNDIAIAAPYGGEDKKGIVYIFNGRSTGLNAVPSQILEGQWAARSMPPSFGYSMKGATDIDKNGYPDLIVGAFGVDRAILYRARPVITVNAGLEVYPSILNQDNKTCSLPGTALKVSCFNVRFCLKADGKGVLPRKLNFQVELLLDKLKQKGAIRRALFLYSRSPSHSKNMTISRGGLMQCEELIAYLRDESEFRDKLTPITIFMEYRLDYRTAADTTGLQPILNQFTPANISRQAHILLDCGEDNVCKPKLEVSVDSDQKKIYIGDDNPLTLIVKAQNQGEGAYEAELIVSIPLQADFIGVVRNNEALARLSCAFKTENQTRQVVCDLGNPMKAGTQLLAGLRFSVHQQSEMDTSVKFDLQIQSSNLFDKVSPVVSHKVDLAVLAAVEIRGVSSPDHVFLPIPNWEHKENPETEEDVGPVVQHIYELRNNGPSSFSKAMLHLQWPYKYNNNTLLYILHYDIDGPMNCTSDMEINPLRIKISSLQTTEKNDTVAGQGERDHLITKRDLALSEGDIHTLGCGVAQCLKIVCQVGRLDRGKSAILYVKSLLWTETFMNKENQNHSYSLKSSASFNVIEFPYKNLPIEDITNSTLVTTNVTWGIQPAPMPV
# T1 sequence (P18084 24-719, chain 2 of 2): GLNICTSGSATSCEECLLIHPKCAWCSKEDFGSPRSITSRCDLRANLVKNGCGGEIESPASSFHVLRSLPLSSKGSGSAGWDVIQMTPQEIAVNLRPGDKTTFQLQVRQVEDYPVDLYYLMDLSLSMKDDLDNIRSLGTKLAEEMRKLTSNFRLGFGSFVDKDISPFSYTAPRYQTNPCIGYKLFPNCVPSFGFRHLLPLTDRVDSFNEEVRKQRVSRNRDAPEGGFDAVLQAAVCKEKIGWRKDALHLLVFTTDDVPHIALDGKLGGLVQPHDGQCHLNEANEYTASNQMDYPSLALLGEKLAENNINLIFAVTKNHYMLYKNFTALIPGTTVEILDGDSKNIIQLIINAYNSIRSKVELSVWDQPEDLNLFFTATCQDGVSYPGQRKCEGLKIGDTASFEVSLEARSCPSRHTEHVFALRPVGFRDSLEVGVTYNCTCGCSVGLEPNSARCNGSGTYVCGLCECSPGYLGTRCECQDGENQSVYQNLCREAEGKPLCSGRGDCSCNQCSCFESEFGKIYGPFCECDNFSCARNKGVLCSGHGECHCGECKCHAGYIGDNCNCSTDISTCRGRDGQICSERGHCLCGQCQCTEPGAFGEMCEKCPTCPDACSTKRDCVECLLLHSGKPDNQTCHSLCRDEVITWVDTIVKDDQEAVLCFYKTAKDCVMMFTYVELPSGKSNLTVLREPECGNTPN
# Assay Procedure: ELISA, integrin coated, anti-MICA-HRP
Lab note: anything with signal below 0.6 OD is marked Met; values at 0.6 OD or higher are marked Not met.

Completed entries (count: 2):
- Binder: "soluble MICA generated by pKK35 (His10sp in loop 3) (designed binder) EPHSLRYNLTVLSWDGSVQSGFLTEVHLDGQPFLRCDRQKCRAKPQGQWAEDVLGNKTWDRETRDLTGNGKDLRMTLAHIKDQKEGLHSLQEIRVCEIHEDNSTRSSQHFYYDGELFLSQNLETKEWTMPQSSRAQTLAMNVRNFLKEDAMKTKTHYHAMHADCLQELRRYLKSGVVLRRTVPPMVNVTRSEASEGNITVTCRASGFYPWNITLSWRQDGVSLSHDTQQWGDVLPDGNGTYQTWVATRISGGSGGGSHHHHHHHHHHSGGSGGGCYMEHSGNHSTHPVPSGK"
  Answer Label: "Met"
- Binder: "soluble MICA generated by pKK37 (loop 3.2 in loop 1) (designed binder) HHHHHHEPHSLRYNLTVLSWDGSVQSGFLTEVHLDGQPFLRCDRQKCRAKPQGQWAEDVLGNKTWDRETRDLTGNGKDLRMTLAHIKDQKEGLHSLQEIRVCEIHEDNSTRSSQHFYYDGELFLSQNLETEEWTMPQSSRAQTLAMNVRNFLKEDAMKTKTHYHAMHADCLQELRRYLKSGVVLRRTVPPMVNVTRTSRGDHPRTQVTCRASGFYPWNITLSWRQDGVSLSHDTQQWGDVLPDGNGTYQTWVATRICQGEEQRFTCYMEHSGNHSTHPVPSGK"
  Answer Label: "Not met"

Asked: Please indicate whether the reported signal of soluble MICA generated by pKK51 (extended loop 5.3sp in loop 3) (designed binder) EPHSLRYNLTVLSWDGSVQSGFLTEVHLDGQPFLRCDRQKCRAKPQGQWAEDVLGNKTWDRETRDLTGNGKDLRMTLAHIKDQKEGLHSLQEIRVCEIHEDNSTRSSQHFYYDGELFLSQNLETKEWTMPQSSRAQTLAMNVRNFLKEDAMKTKTHYHAMHADCLQELRRYLKSGVVLRRTVPPMVNVTRSEASEGNITVTCRASGFYPWNITLSWRQDGVSLSHDTQQWGDVLPDGNGTYQTWVATRISGGSGGGSHLARGDDLTYSGGSGGGCYMEHSGNHSTHPVPSGK is strictly below 0.6 OD.
Given back: Not met

Asked: A record lists soluble MICA generated by pKK40 (loop 5.1 in loop 1) (designed binder) HHHHHHEPHSLRYNLTVLSWDGSVQSGFLTEVHLDGQPFLRCDRQKCRAKPQGQWAEDVLGNKTWDRETRDLTGNGKDLRMTLAHIKDQKEGLHSLQEIRVCEIHEDNSTRSSQHFYYDGELFLSQNLETEEWTMPQSSRAQTLAMNVRNFLKEDAMKTKTHYHAMHADCLQELRRYLKSGVVLRRTVPPMVNVTVTRGDTFTQSVTCRASGFYPWNITLSWRQDGVSLSHDTQQWGDVLPDGNGTYQTWVATRICQGEEQRFTCYMEHSGNHSTHPVPSGK . Is its signal below 0.6 OD?
Given back: Not met

Asked: A record lists soluble MICA generated by pKK36 (loop 3.1 in loop 1) (designed binder) HHHHHHEPHSLRYNLTVLSWDGSVQSGFLTEVHLDGQPFLRCDRQKCRAKPQGQWAEDVLGNKTWDRETRDLTGNGKDLRMTLAHIKDQKEGLHSLQEIRVCEIHEDNSTRSSQHFYYDGELFLSQNLETEEWTMPQSSRAQTLAMNVRNFLKEDAMKTKTHYHAMHADCLQELRRYLKSGVVLRRTVPPMVNVTSRGDHPRTQVTCRASGFYPWNITLSWRQDGVSLSHDTQQWGDVLPDGNGTYQTWVATRICQGEEQRFTCYMEHSGNHSTHPVPSGK . Is its signal below 0.6 OD?
Given back: Met

Values compiled from patent EP2658867B1.
